The molecules listed here are annotated with their melting point.

# example entries with known answers
[[record]]
molecule = "O=C(O)CC(c1ccc(OC(F)F)c(OC(F)F)c1)N1Cc2cccc(NC(=O)C3CC3)c2C1=O (stereo not drawn)"
recorded_value = "94 to 96 °C"

[[record]]
molecule = "CCOc1cc(C(CC(=O)O)N2Cc3cccc(NC(C)=O)c3C2=O)ccc1OC(F)F (stereo not drawn)"
recorded_value = "105 to 107 °C"


Quick check: melting point of CCOc1cc(C(CC(=O)N2CCOCC2)N2C(=O)c3cccc(NC(C)=O)c3C2=O)ccc1OC(F)F (stereo not drawn) ?
109 to 111 °C
